- TEST TARGET: porcine pancreatic α-amylase (Sus scrofa)
- Sequence (P00690 16-511): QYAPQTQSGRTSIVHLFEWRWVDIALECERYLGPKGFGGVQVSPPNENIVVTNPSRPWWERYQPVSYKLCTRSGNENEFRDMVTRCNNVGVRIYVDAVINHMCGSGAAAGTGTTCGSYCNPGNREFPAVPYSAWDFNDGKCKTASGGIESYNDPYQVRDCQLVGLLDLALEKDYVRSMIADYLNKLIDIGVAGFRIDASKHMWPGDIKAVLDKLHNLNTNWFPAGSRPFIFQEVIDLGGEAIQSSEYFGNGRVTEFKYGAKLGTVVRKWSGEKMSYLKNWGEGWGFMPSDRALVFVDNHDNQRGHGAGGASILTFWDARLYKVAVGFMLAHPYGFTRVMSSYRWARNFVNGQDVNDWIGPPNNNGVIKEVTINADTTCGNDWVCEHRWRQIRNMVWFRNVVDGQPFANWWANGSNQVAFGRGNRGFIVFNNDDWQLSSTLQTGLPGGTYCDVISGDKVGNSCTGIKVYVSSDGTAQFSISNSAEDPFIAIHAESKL
MEASURED ENDPOINT: IC50 (µM)

LINE NOTATION: CCCCCCCCCCNC(=O)[C@@H](NC(=O)OC(C)(C)C)[C@@H](C)CC
MEASURED ENDPOINT: IC50
EXPERIMENTAL RESULT: 171
